Ki, UniProt P50406, per-entry values.
Sequence (P50406 whole entry): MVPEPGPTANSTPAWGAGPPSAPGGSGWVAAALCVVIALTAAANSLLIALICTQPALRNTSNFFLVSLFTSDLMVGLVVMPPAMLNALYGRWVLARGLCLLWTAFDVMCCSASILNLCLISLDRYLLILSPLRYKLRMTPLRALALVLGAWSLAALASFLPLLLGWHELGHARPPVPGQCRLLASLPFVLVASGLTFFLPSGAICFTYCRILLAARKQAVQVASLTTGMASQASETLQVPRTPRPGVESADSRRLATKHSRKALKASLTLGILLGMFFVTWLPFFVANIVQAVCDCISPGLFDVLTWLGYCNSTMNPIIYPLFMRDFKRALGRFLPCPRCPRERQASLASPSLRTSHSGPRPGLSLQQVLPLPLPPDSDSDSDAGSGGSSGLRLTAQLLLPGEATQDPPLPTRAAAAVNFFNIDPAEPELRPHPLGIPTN
Supply the numeric figure in nM, leaving out any unit text.

# Compound, Target Or System, Readout Label, Measured
records = [
    ("CN1CCC(c2cn(S(=O)(=O)c3ccc(Cl)cc3)c3ccccc23)C1 (centres unmarked) [Example 6]", "UniProt P50406", "Ki", 1),
    ("CN1CCC(c2cn(S(=O)(=O)c3ccc4ccccc4c3)c3ccccc23)C1 (centres unmarked) [Example 8]", "UniProt P50406", "Ki", 3),
    ("O=S(=O)(c1ccc(C(F)(F)F)cc1)n1cc(C2CCCNC2)c2ccccc21 (centres unmarked) [Example 38]", "UniProt P50406", "Ki", 10),
]

Measured Ki (UniProt P50406), entry O=S(=O)(c1ccc(Cl)s1)n1cc(C2CCCNC2)c2ccccc21 (centres unmarked) [Example 33] : 3

Case O=S(=O)(c1ccc2ccccc2c1)n1cc(C2CCCNC2)c2ccccc21 (centres unmarked) [Example 41] , UniProt P50406, Ki recorded as 8

UniProt P50406 data for O=S(=O)(c1ccc(F)c(F)c1)n1cc(C2CCCNC2)c2ccccc21 (centres unmarked) [Example 35] ; its Ki: 7

Cc1ccc(S(=O)(=O)n2cc(C3CCN(Cc4ccccc4)C3)c3ccccc32)cc1 (centres unmarked) [Example 18] on UniProt P50406 gives Ki = 8

Measured Ki for this entry Cc1ccc(S(=O)(=O)n2cc(C3CCCNC3)c3ccccc32)cc1Cl (centres unmarked) [Example 39] on UniProt P50406: 6

Note to self: Ki of CC(C)c1ccc(S(=O)(=O)n2cc(C3CCCNC3)c3ccccc32)cc1 (centres unmarked) [Example 32] with UniProt P50406 was 5

Summary line: CN1CCC(c2cn(S(=O)(=O)c3cc(Cl)c(Cl)s3)c3ccccc23)C1 (centres unmarked) [Example 12] , UniProt P50406, reported Ki = 4
